B1: CPEB3 Ribozyme (parent)
chain: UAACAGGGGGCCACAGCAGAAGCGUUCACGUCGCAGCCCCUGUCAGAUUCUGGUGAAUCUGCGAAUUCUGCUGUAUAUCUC

variants of: B1; experiment: self-cleavage, relative activity (ratio to wild type); higher = more cleavage; in vitro, sequencing
Readings of self-cleavage for the listed variants
Answer with a bare number; do not write a unit.

* G6A U51A | 0.37
* U48A U69A | 0.18
* U25G U67G | 0.19
* C44U | 0.31
* G24A U72C | 0.25

Which self-cleavage is listed for U51A U54G ?
0.43

Then what about the variant A5G A13G ?
0.56

Then what about the variant G46A A57G ?
0.16

Then what about the variant A15U U49C ?
0.15

Then what about the variant A45G G73A ?
1.16

Then what about the variant G10A A65G ?
0.12

Then what about the variant G16C G52U ?
0.48
